# Test system: SARS-CoV-2 (USA-WA1/2020) in Calu-3 cells
# run_description: microbe, parasite or virus in culture
# Format: cell-based
# experimental_context: Severe acute respiratory syndrome coronavirus 2, Calu-3, 48 h; […]; above 30 μM reported as >30; read-out: EC50 (μM) dsRNA
Where a name gives a salt, the structure may show the parent alone.
Strictly below 0.07 µM in EC50: fulfilled. Otherwise: not fulfilled.

Please check: EC50 for CC(C)NC[C@@H](C(=O)N1CCN(c2ncnc3c2[C@H](C)C[C@H]3O)CC1)c1ccc(Cl)cc1 [GDC-0068, reference compound] , strictly under 0.07 µM or not? not fulfilled

Please check: EC50 for "COc1cc([C@@H]2c3cc4c(cc3[C@H](O)[C@H]3COC(=O)[C@@H]23)OCO4)cc(OC)c1OC" , strictly under 0.07 µM or not? fulfilled

Please check: EC50 for CN1CC[C@H](c2c(O)cc(O)c3c(=O)cc(-c4ccccc4Cl)oc23)[C@H](O)C1 [Flavopiridol HCl] , strictly under 0.07 µM or not? not fulfilled
